- Tested Target: Tmod1s1 (res. 1–38 of Tmod1)
- Assay Info: CD thermal unfolding at 222 nm of Tpm1.1 model peptide complexes with Tmod1s1
- Type: binding, Gallus gallus
- Study Conditions: read-out: Kd (30°C,µM), Tmod1s1; 30°C; Kd=exp(−ΔΔG/RT) from CD unfolding of the complex and of the Tpm1.1 peptide alone; 40 µM equimolar, 10 mM sodium phosphate pH 7.0, 100 mM NaCl; duplicates
Assay Endpoint: Kd

What is its Kd for Tmod1s1 (res. 1–38 of Tmod1)? Entry: H-GMDAIKKKMQMLKLDNENALDRNYHLENEVARLKKLVGER-OH [αTM1a1–21Zip[K15N]] 3.77 µM
